Test target: p110γ (Homo sapiens, UniProt P48736)
Construct: purchased Invitrogen
Sequence (P48736 whole entry, species assumed): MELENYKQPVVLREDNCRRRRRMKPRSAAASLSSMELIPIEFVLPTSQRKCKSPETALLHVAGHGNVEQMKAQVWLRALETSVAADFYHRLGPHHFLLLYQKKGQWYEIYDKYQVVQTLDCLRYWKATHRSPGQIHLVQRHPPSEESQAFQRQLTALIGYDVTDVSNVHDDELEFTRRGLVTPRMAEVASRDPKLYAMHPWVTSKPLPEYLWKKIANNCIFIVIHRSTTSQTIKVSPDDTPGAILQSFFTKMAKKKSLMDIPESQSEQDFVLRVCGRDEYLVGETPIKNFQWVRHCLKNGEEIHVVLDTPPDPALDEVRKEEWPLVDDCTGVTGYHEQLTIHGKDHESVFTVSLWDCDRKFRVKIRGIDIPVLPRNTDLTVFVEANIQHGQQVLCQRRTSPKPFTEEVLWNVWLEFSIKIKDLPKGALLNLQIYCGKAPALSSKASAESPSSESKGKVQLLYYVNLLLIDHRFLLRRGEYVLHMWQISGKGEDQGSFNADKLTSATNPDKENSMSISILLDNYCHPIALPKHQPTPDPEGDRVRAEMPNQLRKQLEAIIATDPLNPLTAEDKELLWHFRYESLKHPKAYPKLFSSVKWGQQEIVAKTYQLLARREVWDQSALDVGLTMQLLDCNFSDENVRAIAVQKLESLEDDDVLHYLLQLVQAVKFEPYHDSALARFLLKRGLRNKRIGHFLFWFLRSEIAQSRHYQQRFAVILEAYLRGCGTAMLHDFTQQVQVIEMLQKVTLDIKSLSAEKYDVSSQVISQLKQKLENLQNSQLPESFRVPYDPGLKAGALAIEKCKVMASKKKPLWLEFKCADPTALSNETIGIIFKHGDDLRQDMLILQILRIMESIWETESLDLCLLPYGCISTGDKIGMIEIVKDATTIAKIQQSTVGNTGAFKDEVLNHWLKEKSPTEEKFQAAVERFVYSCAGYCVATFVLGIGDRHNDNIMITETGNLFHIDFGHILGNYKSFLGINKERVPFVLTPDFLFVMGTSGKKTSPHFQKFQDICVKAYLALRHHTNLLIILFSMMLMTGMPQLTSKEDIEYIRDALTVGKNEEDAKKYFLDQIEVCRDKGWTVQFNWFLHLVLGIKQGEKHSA
Method: Transcreener KINASE Assay, kinase inhibition of p110γ
Assay type: biochemical
Conditions: @ 1 uM
Measured quantity: PI3Kγ IH % @ 1 uM (%)
Provide the reading as a plain figure in %.

Reference set (3 entries):
[[record]]
test_smiles = "N#Cc1c[nH]c2ncnc(N3CCC[C@H]3c3nn4cccc4c(=O)n3-c3ccccc3)c12"
unit_symbol = "%"
reported_value = 91.9

[[record]]
test_smiles = "O=c1c2cccn2nc([C@@H]2CCCN2c2ncnc3[nH]cnc23)n1-c1cccc(Cl)c1"
unit_symbol = "%"
reported_value = 60.3

[[record]]
test_smiles = "CC(=O)c1c[nH]c2ncnc(N3C[C@@H](F)C[C@H]3c3nn4ccc(Cl)c4c(=O)n3-c3ccccc3)c12"
unit_symbol = "%"
reported_value = 100


Turning to the following molecule.
Problem: Report value: PI3Kγ IH % @ 1 uM, system: p110γ (Homo sapiens, UniProt P48736), molecule: O=c1c2cccn2nc([C@@H]2CCCN2c2ncnc3[nH]cc(-c4cn[nH]c4)c23)n1-c1ccccc1
Result: 94.2
